Cited source for all entries: patent US10781204B2

Target: TYK2 (Homo sapiens (Human))
Sequence (P29597 whole entry): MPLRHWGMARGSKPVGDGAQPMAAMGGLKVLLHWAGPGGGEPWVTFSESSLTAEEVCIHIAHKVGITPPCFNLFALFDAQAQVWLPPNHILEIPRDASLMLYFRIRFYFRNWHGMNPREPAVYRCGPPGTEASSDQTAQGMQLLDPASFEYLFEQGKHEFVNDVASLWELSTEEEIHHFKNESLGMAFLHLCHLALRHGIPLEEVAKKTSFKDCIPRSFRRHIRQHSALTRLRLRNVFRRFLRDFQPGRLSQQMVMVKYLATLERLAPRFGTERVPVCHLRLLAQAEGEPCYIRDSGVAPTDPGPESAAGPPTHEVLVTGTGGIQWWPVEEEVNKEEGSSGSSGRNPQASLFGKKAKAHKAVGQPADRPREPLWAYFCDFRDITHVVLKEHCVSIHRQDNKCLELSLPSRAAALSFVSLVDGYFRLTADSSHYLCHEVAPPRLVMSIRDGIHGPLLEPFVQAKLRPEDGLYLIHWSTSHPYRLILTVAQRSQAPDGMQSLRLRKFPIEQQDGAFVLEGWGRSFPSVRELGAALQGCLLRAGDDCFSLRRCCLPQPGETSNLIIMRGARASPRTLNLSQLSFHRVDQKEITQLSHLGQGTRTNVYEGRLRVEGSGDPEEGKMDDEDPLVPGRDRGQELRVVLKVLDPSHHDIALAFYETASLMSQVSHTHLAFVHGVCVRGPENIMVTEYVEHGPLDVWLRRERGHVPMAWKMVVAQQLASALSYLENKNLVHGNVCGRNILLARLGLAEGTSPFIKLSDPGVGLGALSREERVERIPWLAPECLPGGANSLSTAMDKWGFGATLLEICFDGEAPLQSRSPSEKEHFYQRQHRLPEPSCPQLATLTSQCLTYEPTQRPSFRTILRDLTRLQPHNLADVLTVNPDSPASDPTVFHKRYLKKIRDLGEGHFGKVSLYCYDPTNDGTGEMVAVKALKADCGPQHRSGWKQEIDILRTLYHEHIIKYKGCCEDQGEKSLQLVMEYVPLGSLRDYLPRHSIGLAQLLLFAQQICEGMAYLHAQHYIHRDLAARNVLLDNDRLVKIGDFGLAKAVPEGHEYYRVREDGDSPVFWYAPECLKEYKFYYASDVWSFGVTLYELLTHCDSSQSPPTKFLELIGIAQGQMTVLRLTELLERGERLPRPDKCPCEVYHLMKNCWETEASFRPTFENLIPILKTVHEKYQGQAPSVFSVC
pKi: −log10 of the molar value.

compound | pKi
N#Cc1cccc(F)c1-c1cc(-n2ccc(NCCN3CCOCC3)n2)c2c(n1)CNC2=O | 8.00 to 10.00
CC1(C)COC(c2ccn(-c3cc(-c4c(F)cccc4C#N)nc4c3C(=O)NC4)n2)=N1 | 8.00 to 10.00
[2H]C1([2H])NC(=O)c2c(-n3ccc(N4CCC[C@@](C)(O)C4)n3)cc(-c3c(F)cccc3C#N)nc21 | 8.00 to 10.00
N#Cc1cccc(F)c1-c1cc(-n2ccc(N3CCC(N4CCOCC4)CC3)n2)c2c(n1)CNC2=O | 8.00 to 10.00
N#Cc1cccc(F)c1-c1cc(-n2ccc(N3CC[C@@H](O)[C@@H](O)C3)n2)c2c(n1)CNC2=O [I-105] | 8.00 to 10.00
N#Cc1cccc(F)c1-c1cc(-n2ccc(N3CCCC(CO)C3)n2)c2c(n1)CNC2=O (stereo not shown) | 8.00 to 10.00
CC1(O)CCCN(c2ccn(-c3cc(-c4c(F)cccc4C#N)nc4c3C(=O)NC4)n2)C1 (stereo not shown) | 10.00 to 11.05
C[C@@]1(O)CN(c2ccn(-c3cc(-c4c(F)cccc4C#N)nc4c3C(=O)NC4)n2)C[C@@](C)(O)C1 | 8.00 to 10.00
N#Cc1cccc(F)c1-c1cc(-n2ccc(N3CCC[C@@H](N)C3)n2)c2c(n1)CNC2=O | 8.00 to 10.00
CCNC(=O)[C@@H]1CCCN(c2ccn(-c3cc(-c4c(F)cccc4C#N)nc4c3C(=O)NC4)n2)C1 | 8.00 to 10.00
N#Cc1cccc(F)c1-c1cc(-c2ccn([C@@H]3COC[C@@H]3O)n2)c2c(n1)CNC2=O | 7.00 to 8.00
N#Cc1cccc(F)c1-c1cc(-n2ccc(N3CCCC(C(=O)O)C3)n2)c2c(n1)CNC2=O (stereo not shown) | 8.00 to 10.00
CC(C)c1ccn(-c2cc(-c3c(F)cccc3C#N)nc3c2C(=O)NC3)n1 | 8.00 to 10.00
